- subject of test: T1, human CLDN3 (human, UniProt O15551 1-220)
- T1 construct: whole, on cells; Transfection was confirmed with an anti-FLAG antibody, so the construct may carry a tag
- T1 sequence (looked up): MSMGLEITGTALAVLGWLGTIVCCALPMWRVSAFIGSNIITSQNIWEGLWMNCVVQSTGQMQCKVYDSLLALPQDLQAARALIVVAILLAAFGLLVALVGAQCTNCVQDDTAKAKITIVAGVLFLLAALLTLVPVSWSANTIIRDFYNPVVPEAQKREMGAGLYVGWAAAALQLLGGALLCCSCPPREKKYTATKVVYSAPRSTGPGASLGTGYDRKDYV
- test: flow cytometry on 293T cells transiently transfected with human CLDN3
reported endpoint: binding result

mouse anti-CLDN6 antibody C7 (antibody, V domains shown, Mouse monoclonal antibody purified from the culture supernatant of hybridoma 218C7; also called C7 antibody; 218C7) VH: EVQLQQSGPELVKPGASVKISCKTSGYTFTEYTMHWVQQSHGKSLEWIGGVNPNSGDTSYNQKFKGKATLTVDKSSSTAYMELRSLTSEDSAVYYCARPGGYDVGYYAMDYWGQGTSVTVSS VL: DIQMTQTASSLSASLGDRVTISCRASQDINNYLNWYQQKPDGTVKLLIYSTSRLHSGVPSRFSGSGSGTHYSLTITHLEQEDIATYFCQQGYPLPWTFGGGTKLEIK | no binding
mouse anti-CLDN6 antibody B1 (antibody, V domains shown, Mouse monoclonal antibody purified from the culture supernatant of hybridoma 218B1; a mouse IgG1 was used as the control; also called B1 antibody; 218B1) VH: EVQLQQSGPELVKPGASVKISCKTSGYTFTEYTMHWVQQSHGKSLEWIGGVNPNSGDTSYNQKFKGKATLTVDKSSSTAYMELRSLTSEDSAVYYCARPGGYDVGYYAMDYWGQGTSVTVSS VL: DIQMTQTASSLSASLGDRVTISCRASQDINNYLNWYQQKPDGTVKLLIYFTSRLHSGVPSRFSGSGSGTHYSLTITNLEQEDIATYFCQQGYPLPWTFGGGTKLEIK | no binding

The measurements presented in this section are drawn from patent US20220395579A1.
